Items are presented alongside their recorded Percent Control.
test system: PRKG1; conditions: Compound Concentration (nM):1000;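 further: KINOMEscan scanMAX binding as percent activity remaining versus control; lower means stronger binding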
Give just the number in %; leave the unit off.

[
  {
    "compound": "CCn1c(-c2nonc2N)nc2c(C#CC(C)(C)O)nc(OCCNC)cc21.Cl",
    "target.or.test.system": "PRKG1",
    "Percent Control [%]": 34
  },
  {
    "compound": "COc1ccc2c(-c3ccnc(Nc4cccc(OC(F)(F)F)c4)n3)cnn2n1 [GW810372X]",
    "target.or.test.system": "PRKG1",
    "Percent Control [%]": 82
  },
  {
    "compound": "NS(=O)(=O)c1ccc(Nc2ncc(-c3ccccc3)o2)cc1 [GW572399X]",
    "target.or.test.system": "PRKG1",
    "Percent Control [%]": 96
  }
]

Q: State Percent Control (PRKG1) of COc1cc2ncnc(Nc3ccc4c(cnn4Cc4ccccc4)c3)c2cc1OC.Cl [GW282449A] .
A: 93

Q: State Percent Control (PRKG1) of CN1CCN(C(=O)c2ccc(NC(=O)Nc3ccc(N(C)c4ccnc(Nc5ccc(CS(C)(=O)=O)cc5)n4)cc3)cc2)CC1.Cl [GW830263A] .
A: 100

Q: State Percent Control (PRKG1) of CC1=C(C(=O)Nc2ccc3[nH]ncc3c2)C(c2ccc(Cl)c(Cl)c2)CC(=O)N1 (stereo not shown) [GSK299115A] .
A: 45

Q: State Percent Control (PRKG1) of C[C@@H](Oc1cc(-n2cnc3ccc(OC4CCN(C)CC4)cc32)sc1C(N)=O)c1ccccc1Cl [GSK579289A] .
A: 100

###

Items are presented alongside their recorded Percent Control.
test system: EPHB3; conditions: Compound Concentration (nM):1000
Give just the number in %; leave the unit off.

[
  {
    "compound": "COc1cc2ncn(-c3cc(O[C@H](C)c4ccccc4Cl)c(C(N)=O)s3)c2cc1OC [GSK237701A]",
    "Percent Control, %": 92
  },
  {
    "compound": "CC1=C(C(=O)Nc2ccc3[nH]ncc3c2)C(c2ccc(Cl)c(Cl)c2)CC(=O)N1 (centres unmarked) [GSK299115A]",
    "Percent Control, %": 98
  },
  {
    "compound": "COc1ccc2cc(-c3c(-c4ccncc4)nc(-c4ccc(S(C)(=O)=O)cc4C)n3C)ccc2c1",
    "Percent Control, %": 80
  },
  {
    "compound": "C/C(Nc1ccc(S(N)(=O)=O)cc1)=C1/C(=O)Nc2ccccc21 [GW335962X]",
    "Percent Control, %": 89
  },
  {
    "compound": "CC1=C(C(=O)Nc2ccc3[nH]ncc3c2)C(c2ccc3ccccc3c2)CC(=O)N1 (centres unmarked) [GSK270822A]",
    "Percent Control, %": 89
  },
  {
    "compound": "NS(=O)(=O)c1ccc(N/N=C2\\C(=O)Nc3ccc(Cl)cc32)cc1 [GW280670X]",
    "Percent Control, %": 100
  }
]

Q: Determine its reported Percent Control: Cl.O=C(Nc1ccc(Oc2ccc3[nH]c(NC(=O)c4ccccc4)nc3c2)cc1)Nc1cc(C(F)(F)F)ccc1F [GW709042A]
A: 90

Q: Determine its reported Percent Control: Nc1ncnc2occ(-c3ccc(NC(=O)Nc4cc(C(F)(F)F)ccc4F)cc3)c12 [GW770249X]
A: 31

Q: Determine its reported Percent Control: NS(=O)(=O)c1ccc(N/N=C2\C(=O)Nc3ccc(C(=O)NCCc4c[nH]cn4)cc32)cc1 [GW300660X]
A: 100

Q: Determine its reported Percent Control: NS(=O)(=O)c1ccc(N/N=C2\C(=O)Nc3ccc(C(=O)NCc4ccncc4)cc32)cc1 [GW300657X]
A: 98

Q: Determine its reported Percent Control: COc1cccc(-n2ncc3c(N/N=C/c4ccncc4)ncnc32)c1 [GW784752X]
A: 100

Q: Determine its reported Percent Control: O=C(Nc1n[nH]c2nc(-c3ccc(O)cc3)c(Br)cc12)C1CC1
A: 100

Q: Determine its reported Percent Control: Cl.c1ccc(Cc2nc3ccc(Nc4ncnc5ccccc45)cc3[nH]2)cc1 [GR269666A]
A: 100

Q: Determine its reported Percent Control: CN(C)CCNC(=O)Nc1ccc(N(C)c2ccnc(Nc3ccc(CS(C)(=O)=O)cc3)n2)cc1.Cl [GW830900A]
A: 100

Q: Determine its reported Percent Control: NS(=O)(=O)c1ccc(N/N=C2\C(=O)Nc3ccc(-c4cnco4)cc32)cc1
A: 86

Q: Determine its reported Percent Control: COc1ccc2c(-c3ccnc(Nc4cccc(OC(F)(F)F)c4)n3)cnn2n1 [GW810372X]
A: 100

Q: Determine its reported Percent Control: CN1CCN(C(=O)c2ccc(NC(=O)Nc3ccc(N(C)c4ccnc(Nc5ccc(CS(C)(=O)=O)cc5)n4)cc3)cc2)CC1.Cl [GW830263A]
A: 100

###

test system: PIP5K1A; conditions: Compound Concentration (nM):1000
Items are presented alongside their recorded Percent Control.
Entry format: amount then unit.

In the examples that follow, each entry is paired with its recorded Percent Control.
[
  {
    "compound": "COc1cc(/C=N/Nc2ncnc3[nH]ncc23)ccc1O [GW578748X]",
    "Percent Control": "78%"
  },
  {
    "compound": "CCS(=O)(=O)c1ccc(OC)c(Nc2ncc(-c3cccc(OC)c3)o2)c1 [GW580509X]",
    "Percent Control": "100%"
  },
  {
    "compound": "O=C(Nc1n[nH]c2nc(-c3ccc(O)cc3)c(Br)cc12)C1CC1 [SB-725317]",
    "Percent Control": "100%"
  }
]

Q: Determine its reported Percent Control: CCc1ccc(Oc2nccc(-c3c(-c4ccc(F)cc4)ncn3C3CCNCC3)n2)cc1 [SB-242719]
A: 87%

Q: Determine its reported Percent Control: C/C(Nc1ccc(S(N)(=O)=O)cc1)=C1/C(=O)Nc2ccccc21 [GW335962X]
A: 96%

Q: Determine its reported Percent Control: Cl.O=S1CCN(Cc2ccc(-c3ccc4ncnc(Nc5ccc(OCc6ccccc6)c(F)c5)c4c3)o2)CC1 [GW576924A]
A: 100%

Q: Determine its reported Percent Control: C[C@@H](Oc1cc(-n2cnc3ccc(OC4CCN(C)CC4)cc32)sc1C(N)=O)c1ccccc1Cl [GSK579289A]
A: 21%

Q: Determine its reported Percent Control: COc1cc2ncnc(Nc3ccc4c(cnn4Cc4ccccc4)c3)c2cc1OC.Cl [GW282449A]
A: 100%

Q: Determine its reported Percent Control: NS(=O)(=O)c1ccc(N/N=C2\C(=O)Nc3ccc(C(=O)NCCc4c[nH]cn4)cc32)cc1 [GW300660X]
A: 100%

Q: Determine its reported Percent Control: COc1ccc2[nH]c3c4[nH]c5ccc(OC)cc5c4c4c(c3c2c1)C(=O)NC4=O [GW296115X]
A: 100%

Q: Determine its reported Percent Control: CCn1c(-c2nonc2N)nc2c(C#CC(C)(C)O)nc(OCCNC)cc21.Cl [GSK949675]
A: 79%

Q: Determine its reported Percent Control: CN(C)CCNC(=O)Nc1ccc(N(C)c2ccnc(Nc3ccc(CS(C)(=O)=O)cc3)n2)cc1.Cl [GW830900A]
A: 23%

Q: Determine its reported Percent Control: CCS(=O)(=O)c1ccc(OC)c(Nc2ncc(-c3cccc(F)c3)o2)c1 [GW621970X]
A: 99%

Q: Determine its reported Percent Control: Cl.O=C(Nc1ccc(Oc2ccc3[nH]c(NC(=O)c4ccccc4)nc3c2)cc1)Nc1cc(C(F)(F)F)ccc1F [GW709042A]
A: 100%

Q: Determine its reported Percent Control: Cc1cc(O)cc(C)c1/C=C/c1cncc(C(N)=O)c1 [GW435821X]
A: 100%

Q: Determine its reported Percent Control: NS(=O)(=O)c1ccc(N/N=C2\C(=O)Nc3ccc(-c4cnco4)cc32)cc1 [GW276655]
A: 26%

Q: Determine its reported Percent Control: Cl.c1ccc(Cc2nc3ccc(Nc4ncnc5ccccc45)cc3[nH]2)cc1 [GR269666A]
A: 100%

###

Items are presented alongside their recorded Percent Control.
tested on: GRK4; conditions: Compound Concentration (nM):1000
Give just the number in %; leave the unit off.

In the examples that follow, each entry is paired with its recorded Percent Control.
[
  {
    "molecule": "Cl.O=C(Nc1ccc(Oc2ccc3[nH]c(NC(=O)c4ccccc4)nc3c2)cc1)Nc1cc(C(F)(F)F)ccc1F [GW709042A]",
    "Percent Control [%]": 100
  },
  {
    "molecule": "COc1cccc(-n2ncc3c(N/N=C/c4ccncc4)ncnc32)c1 [GW784752X]",
    "Percent Control [%]": 88
  },
  {
    "molecule": "COc1cc2ncn(-c3cc(O[C@H](C)c4ccccc4Cl)c(C(N)=O)s3)c2cc1OC [GSK237701A]",
    "Percent Control [%]": 18
  },
  {
    "molecule": "COc1ccccc1-c1cc(/C=C2\\C(=O)Nc3ncc(Br)cc32)cc(Br)c1O [GW442130X]",
    "Percent Control [%]": 100
  },
  {
    "molecule": "NS(=O)(=O)c1ccc(N/N=C2\\C(=O)Nc3ccc(C(=O)NCCc4c[nH]cn4)cc32)cc1 [GW300660X]",
    "Percent Control [%]": 100
  },
  {
    "molecule": "COc1ccc(COc2ccc(Cc3cnc(N)nc3N)cc2OC)cc1 [GW632580X]",
    "Percent Control [%]": 100
  }
]

Q: Determine its reported Percent Control: CCn1c(-c2nonc2N)nc2c(C#CC(C)(C)O)nc(OCCNC)cc21.Cl
A: 100

Q: Determine its reported Percent Control: CC1=C(C(=O)Nc2ccc3[nH]ncc3c2)C(c2ccc3ccccc3c2)CC(=O)N1 (centres unmarked) [GSK270822A]
A: 100
